# System: Escherichia coli
# test.description: Antibacterial activity against Escherichia coli at 100 ug/ml by agar cup-plate method
# Format: functional
# study.conditions: read-out: IZ
endpoint: zone of inhibition at 100 µg/mL

Q. Record request: zone of inhibition at 100 µg/mL value, item "Cc1c(/N=C/c2ccccc2[N+](=O)[O-])c(=O)n(-c2ccccc2)n1C"
A. < 5 mm

Q. Now try "Cc1c(/N=C/c2ccc(Cl)cc2)c(=O)n(-c2ccccc2)n1C" .
A. < 5 mm

Q. Now try "Cc1c(/N=C/c2ccccc2Cl)c(=O)n(-c2ccccc2)n1C" .
A. > 15 mm

Q. Now try "Cc1c(/N=C/c2ccccc2O)c(=O)n(-c2ccccc2)n1C" .
A. > 15 mm

Q. Now try "CC1(C)S[C@@H]2[C@H](NC(=O)[C@H](N)c3ccccc3)C(=O)N2[C@H]1C(=O)O" .
A. 10 mm

Q. Now try "Cc1c(/N=C/c2cccc([N+](=O)[O-])c2)c(=O)n(-c2ccccc2)n1C" .
A. 5 mm

Q. Now try "[H]/N=C(/N)N[C@H]1[C@H](O)[C@@H](O)[C@H](O[C@@H]2O[C@@H](C)[C@](O)(C=O)[C@H]2O[C@@H]2O[C@@H](CO)[C@H](O)[C@@H](O)[C@@H]2NC)[C@@H](N/C(N)=N\[H])[C@@H]1O" .
A. > 15 mm

Q. Now try "Cc1c(/N=C/c2ccco2)c(=O)n(-c2ccccc2)n1C" .
A. > 15 mm
